Measured log10(TGI) by item
- System: UACC-62 melanoma
- EXPERIMENTAL_PROTOCOL: NCI tumour cell line growth inhibition, 48 h
Values are log10 of TGI in µM.

{"columns": ["MOLECULE", "TEST_TARGET", "REPORTED_ENDPOINT", "REPORTED_MEASUREMENT"],
 "data": [
  ["C=C1C(=O)OC2/C=C(\\COC(C)=O)CCC(OC(C)=O)C3=CC(OC3=O)C12 (stereo not given)", "UACC-62 melanoma", "log10(TGI)", 1.25],
  ["C[C@]12CC[C@@H]3c4cc(OCC(F)(F)F)c(O)cc4/C(=N/O)C[C@H]3[C@@H]1CC[C@@H]2O", "UACC-62 melanoma", "log10(TGI)", 1.25],
  ["COc1ccc(-c2nn(-c3ccc(NC(=O)Nc4cc(C(F)(F)F)cc(C(F)(F)F)c4)cc3)cc2-c2ccncc2)cc1Cl", "UACC-62 melanoma", "log10(TGI)", 0.70]
]}

Look up UACC-62 melanoma data: log10(TGI) of `COc1cccc2c(=O)c3c(sc12)c(N1CCNCC1)nc1ccccc13` , then report it.
0.50

Write down the reported log10(TGI) (system: UACC-62 melanoma) of `O=[N+]([O-])/C(C(Cl)=C(Cl)Cl)=C(\N1CCCCC1)n1cncn1`
1.52

* * *

Examples of compounds with documented TGI follow.
- System: SR leukemia
- EXPERIMENTAL_PROTOCOL: NCI tumour cell line growth inhibition, 48 h

{"columns": ["COMPOUND", "TGI"],
 "data": [
  ["CC(=O)N[C@H]1CSSC[C@@H](C(N)=O)NC(=O)[C@H](C(C)C)NC(=O)[C@H](C)NC(=O)[C@H](Cc2cnc[nH]2)NC1=O", "> 100 µM"],
  ["C=CC/C=C/C/C=C/CCCCCCCc1cccc(O)c1C(=O)O", "> 100 µM"],
  ["C=CCOc1ccc(C2(O)c3ccccc3C3=NCCCN32)cc1 (stereo unspecified)", "> 78.8 µM"]
]}

Name the recorded TGI of the item `CCOC(=O)c1ccc(C)c(N=NN(C)C)c1` in your answer.
> 100 µM

In one line, give reported TGI of the entry COc1cc(NC(C)CCCN)c2nccc(C)c2c1 (stereo unspecified) .
53.1 µM

Output measured TGI for this item: `CCCCN=C(c1ccccc1)N1CCOCC1`
> 100 µM

* * *

- System: SNB-19 CNS
- EXPERIMENTAL_PROTOCOL: NCI tumour cell line growth inhibition, 48 h
REPORTED_ENDPOINT: GI50

Look up GI50 of `CC(C)(C[C@H]1CN(S(=O)(=O)c2cccc(C(F)(F)F)c2)c2cc(-c3cc(F)cc(OC(F)F)c3)ccc2O1)C(=O)O` and report it.
5.92 µM

* * *

Listed next: entries and their corresponding TGI.
- Test system: IGROV1 ovarian
- EXPERIMENTAL_PROTOCOL: NCI tumour cell line growth inhibition, 48 h

{"columns": ["MOLECULE", "TGI"],
 "data": [
  ["O=C1CCC(O)=C1N=Nc1ccccc1", "> 100 µM"],
  ["O=c1c2ccccc2c(=O)c2c1[nH]c1c(-c3ccccc3)c(-c3ccccc3)c(=O)c12", "20.4 µM"]
]}

Give the reported value of TGI for this record: `O=C1c2cccnc2-c2nccc3c2c1nc1cc(Br)ccc13`
0.31 µM

Read off the recorded TGI for c1ccc(C2Nc3ccccc3C3OCCCC23)cc1 (centres undefined)
70.2 µM

Quote TGI reported for C=C1CCC(CC[C@@H]2CC[C@]3(OC2)O[C@@]2(O)CC[C@]3(C)OC2(C)C)C(C)(C)[C@H]1C/C=C1/C(=O)OC[C@@H]1O (some centres undefined) please.
11.6 µM

Complete the entry with TGI for `CC(=O)N[C@H]1CSSC[C@@H](C(N)=O)NC(=O)[C@H](C(C)C)NC(=O)[C@H](C)NC(=O)[C@H](Cc2cnc[nH]2)NC1=O`
> 100 µM

Note down TGI recorded for `CCn1c(SCc2ccc(C)cc2)nnc1-c1nn(-c2ccc(Cl)cc2Cl)c(-c2ccc(Cl)cc2)c1C`
15.4 µM

Using known records, supply TGI for `O=C(O)[C@H](NS(=O)(=O)c1ccc([N+](=O)[O-])cc1)c1ccccc1`
> 100 µM

Find the measured TGI of `O=C(O)c1ccc(OCc2nc3cc(C(F)(F)F)ccc3nc2-c2ccccc2)cc1` and report it.
> 100 µM

Using known records, supply TGI for `Cn1c(=O)c(Cc2ccccc2F)cc2cnc(NC3CCOCC3)nc21`
> 25 µM

Answer with reported TGI of O=C1NC(=O)C(CC2CCCCCCCCCCC2=O)C(=O)N1 (centres undefined)
> 100 µM

Give me measured TGI, please, for this molecule: CC(C(O)Cc1ccccc1)N(C)N=Nc1ccc([N+](=O)[O-])cc1 (centres undefined)
43.4 µM

In one line, give reported TGI of the entry `Nc1ccc(-c2nc3ccc(Cc4ccc5nc(-c6ccc(N)cc6)[nH]c5c4)cc3[nH]2)cc1` .
39.8 µM

* * *

- Tested on: RXF 393 renal
- EXPERIMENTAL_PROTOCOL: NCI tumour cell line growth inhibition, 48 h
REPORTED_ENDPOINT: TGI

Quick one: give measured TGI for `O=c1c(C(c2ccc(Cl)cc2)c2c(O)c3ccccc3n(-c3ccccc3)c2=O)c(O)c2ccccc2n1-c1ccccc1`
> 100 µM

Specify reported TGI for the compound shown: `Cc1ccc(S(=O)(=O)NC(=O)N[C@@H](Cc2cnc[nH]2)C(=O)O)cc1`
> 100 µM

Name the recorded TGI of the item N#CC1CC2(C1)OCCS2 (stereo not given) in your answer.
> 100 µM

Please give measured TGI of the following entry: `CC(C)C[C@H](NC(=O)/C=C/Cn1ccc2ccccc2c1=O)B(O)O`
5.15 µM

Output measured TGI for this item: `COc1ccc2c(cnc3c4cc(OC)c(OC)cc4ccc23)c1`
> 100 µM

* * *

- Test system: HOP-62 NSCLC
- EXPERIMENTAL_PROTOCOL: NCI tumour cell line growth inhibition, 48 h
REPORTED_ENDPOINT: log10(TGI) (log10 of the value in µM)
Hey, these are logged values: log10 of TGI, µM being the unit before logging.

{"columns": ["COMPOUND", "TEST_TARGET", "log10(TGI)"],
 "data": [
  ["O=C1CSC(/C(=N/Nc2ccccc2)c2nc3ccccc3[nH]2)=N1", "HOP-62 NSCLC", 1.83],
  ["O=C1/C(=C/c2ccc(Cl)cc2)CSc2ccccc21", "HOP-62 NSCLC", 1.81],
  ["Nc1ccn(C2OC(CO)C(O)C2O)c(=O)c1 (stereo not given)", "HOP-62 NSCLC", 2.61],
  ["Nc1ccc(-c2nc3ccc(Cc4ccc5nc(-c6ccc(N)cc6)[nH]c5c4)cc3[nH]2)cc1", "HOP-62 NSCLC", 1.54],
  ["C=C1CCC(CC[C@@H]2CC[C@]3(OC2)O[C@@]2(O)CC[C@]3(C)OC2(C)C)C(C)(C)[C@H]1C/C=C1/C(=O)OC[C@@H]1O (stereo not given in full)", "HOP-62 NSCLC", 1.30]
]}

Here is the next item to consider.
Give reported log10(TGI) for `O=C(N/N=C/c1cc(Br)cc(Br)c1[O-])c1ccccc1O.O=C(N/N=C/c1cc(Br)cc(Br)c1[O-])c1ccccc1O.[Cu+2]` (HOP-62 NSCLC)
-0.07

* * *

- Tested on: SW-620 colon
- EXPERIMENTAL_PROTOCOL: NCI tumour cell line growth inhibition, 48 h
REPORTED_ENDPOINT: TGI

Worked examples, 4 compounds total:
{"columns": ["COMPOUND", "TGI"],
 "data": [
  ["O=C(O)/C=c1/c2ccccc2n2nc3ccccc3c12", "> 100 µM"],
  ["CC/C=C\\C[C@H]1C/C=C2/C(=O)C=C[C@@H]2C/C=C\\CCCC(=O)O1", "5.52 µM"],
  ["O=c1c(C(c2ccc(Cl)cc2)c2c(O)c3ccccc3n(-c3ccccc3)c2=O)c(O)c2ccccc2n1-c1ccccc1", "> 100 µM"],
  ["Cc1cc(S(=O)(=O)Nc2nc3cc(-c4ccc(Cl)cc4)sc3c(=O)n2N)c(S)cc1Cl", "> 100 µM"]
]}

For the compound `O=c1c2cc(Br)cc(Br)c2nc(CCCl)n1CCO` , report TGI.
> 100 µM

* * *

- Tested on: SN12C renal
- EXPERIMENTAL_PROTOCOL: NCI tumour cell line growth inhibition, 48 h
Measured TGI by item
Numeric answer only, unit µM assumed.

{"columns": ["COMPOUND", "TGI / µM"],
 "data": [
  ["O=c1cc(NC2CCN(CCCc3ccccc3)CC2)c2cc(Cl)ccc2o1", 28.2],
  ["COc1cccc2c(=O)c3c(sc12)c(N1CCNCC1)nc1ccccc13", 3.06],
  ["CC(C)(C[C@H]1CN(S(=O)(=O)c2cccc(C(F)(F)F)c2)c2cc(-c3cc(F)cc(OC(F)F)c3)ccc2O1)C(=O)O", 28],
  ["Cc1ncc(CCCN(C)C)cc1Nc1ncc2c(n1)-c1ccc(C(F)(F)F)cc1NC(=S)C2", 18.4],
  ["C=C(Cl)C(C)(Cl)CCC(Br)C(C)(C)Cl (stereo unspecified)", 31.6]
]}

Read the next record carefully.
Give the reported value of TGI for this record: `O=[N+]([O-])/C(C(Cl)=C(Cl)Cl)=C(\N1CCCCC1)n1cncn1`
33.4
